# Target system: T1, Human CRF2 receptor (Corticotropin-Releasing Factor receptor 2) (human) (UniProt Q13324)
# T1 sequence (looked up): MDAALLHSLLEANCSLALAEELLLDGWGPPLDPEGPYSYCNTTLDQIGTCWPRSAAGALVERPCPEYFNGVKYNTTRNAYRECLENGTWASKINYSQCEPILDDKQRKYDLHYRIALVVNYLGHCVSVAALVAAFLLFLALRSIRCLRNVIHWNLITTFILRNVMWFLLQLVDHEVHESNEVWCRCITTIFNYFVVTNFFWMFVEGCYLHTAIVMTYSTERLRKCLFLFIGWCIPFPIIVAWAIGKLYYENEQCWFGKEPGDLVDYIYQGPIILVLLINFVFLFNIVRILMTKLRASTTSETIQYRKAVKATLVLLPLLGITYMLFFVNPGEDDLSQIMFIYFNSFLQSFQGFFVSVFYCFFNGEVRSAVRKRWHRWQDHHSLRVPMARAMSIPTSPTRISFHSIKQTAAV
# Assay method text: SPA, displacement of [125I]-Sauvagine from membranes of CHO-K1 cells expressing the CRF2 receptor
Ends that are not written are not given here.
Observed property: pIC50
// field semantics: pIC50 = negative decimal log of concentration (mol/L)

Prompt: Look up and state reported pIC50 for IVLSLDVPIGLLQILLEQARARAAREQATTNARILARV-NH2 [Compound 2 - hUcn2 (human Urocortin 2 peptide)]
Completion: 9.24
